Origin of measurements: patent US5808100A

- assay.details: Photochromic properties of polymer (2 mm thick) containing the chromene compound, xenon lamp irradiation 120 seconds
- Type: physicochemical
- Parameters: key: absorbance at λmax after 120 s irradiation minus before, ε(120)-ε(0)
- measurement.setup: 120 seconds irradiation, 20° C.±1° C., at λmax
metric: Color density ε(120)-ε(0)

Record excerpt, results attached:
> print(dat)
                                   compound  recorded.measurement
1  Fc1c(C2(c3ccsc3)C=Cc3c(ccc4ccccc34)O2)ccc2ccccc12 (stereo not drawn) [Compound 30]                  1.18
2  C1=CC(c2ccccc2)(c2ccccc2)Oc2ccc3ccccc3c21 [A, reference compound]                  0.52
3  C1=CC(c2ncco2)(c2csc3ccccc23)Oc2ccc3cc(Cc4ccccc4)ccc3c21 (stereo not drawn) [Compound 13]                  1.02
4  Fc1c(C2(c3ccco3)C=Cc3c(ccc4ccccc34)O2)ccc2ccccc12 (stereo not drawn) [Compound 31]                  1.44
5  COc1ccc2c3c(ccc2c1)OC(c1ccc2ccccc2c1)(c1cnco1)C=C3 (stereo not drawn) [Compound 11]                  1.36

(1) CCOc1c(C2(c3ccco3)C=Cc3c(ccc4cc(OC)c(C(C)=O)cc34)O2)ccc2ccccc12 (stereo not drawn) [Compound 12]
(2) C1=CC(c2ccccc2)(c2cccs2)Oc2ccc3ccccc3c21 (stereo not drawn) [D, reference compound]
Higher Color density ε(120)-ε(0) between 1 and 2 ? Identify your pick by its label.
1
(1: 1.34, 2: 0.51)

(A) N#Cc1cc(Cl)c(C2(c3ccoc3)C=Cc3c(ccc4ccccc34)O2)s1 (stereo not drawn) [Compound 24]
(B) COc1ccc2c3c(ccc2c1)OC(c1ccccc1)(c1ccccc1)C=C3 [B, reference compound]
Min Color density ε(120)-ε(0)? A | B Give the chosen item's label as your response.
B

----------
- assay.details: Photochromic properties of polymer (2 mm thick) containing the chromene compound, xenon lamp irradiation 120 seconds
- Type: physicochemical
- measurement.setup: after 120 seconds irradiation
metric: Color fading rate t1/2: time until absorbancy decreases to one-half of [ε(120)-ε(0)] (min)

Consider the worked cases shown below.
> print(dat)
                                   molecule  recorded.measurement
1  C1=CC(c2ccoc2)(c2ccco2)Oc2ccc3ccccc3c21 (stereo not shown)                 0.833
2  Fc1ccsc1C1(c2ccc3ccccc3c2)C=Cc2c(ccc3ccccc23)O1 (stereo not shown)                  1.13
3  COc1ccc2ccc3c(c2c1)C=CC(c1ccco1)(c1coc2ccccc12)O3 (stereo not shown)                     1
4  Cn1cccc1C1(c2ccc3ccccc3c2)C=Cc2c(ccc3ccccc23)O1 (stereo not shown)                     1
5  Fc1c(C2(c3ccco3)C=Cc3c(ccc4ccccc34)O2)ccc2ccccc12 (stereo not shown)                  1.33
6  COc1ccc2c3c(ccc2c1)OC(c1ccccc1)(c1ccccc1)C=C3 [B, reference compound]                   1.5

(1) COc1ccc2c3c(ccc2c1)OC(c1ccc2ccccc2c1)(c1cnco1)C=C3 (stereo not shown)
(2) C1=CC(c2ccccc2)(c2ccccc2)Oc2ccc3ccccc3c21 [A, reference compound]
// task: argmin of Color fading rate t1/2: time until absorbancy decreases to one-half of [ε(120)-ε(0)] over [ 1 , 2 ] I would appreciate it if you answered with the label of your choice.
2

----------
- assay.details: Photochromic properties of polymer (2 mm thick) containing the chromene compound, xenon lamp irradiation 120 seconds
- Type: physicochemical
- measurement.setup: not irradiated, at λmax
- Method: 0.05 Parts of the chromene compound obtained in Example 1 was added to 70 parts of a tetraethylene glycol dimethacrylate, 15 parts of a triethylene glycol dimethacrylate, 10 parts of a glycidyl methacrylate and 5 parts of a 2-hydroethyl methacrylate, and was mixed to a sufficient degree. The mixture solution was poured into a mold constituted by a glass plate and a gasket made from an ethylene/vinyl acetate copolymer and then polymerized. […]
metric: ε(0): absorbancy of the polymer not irradiated (initial color)

> print(dat)
                                   molecule  recorded.measurement
1  C1=CC(c2ccco2)(c2csc3ccccc23)Oc2ccc3ccccc3c21 (centres unmarked) [Compound 26]                  0.06

(P) C1=CC(c2ccoc2)(c2ccco2)Oc2ccc3ccccc3c21 (centres unmarked) [Compound 5]
(Q) Fc1c(C2(c3ccsc3)C=Cc3c(ccc4ccccc34)O2)ccc2ccccc12 (centres unmarked) [Compound 30]
Given the listed records, identify the one among P and Q with higher ε(0): absorbancy of the polymer not irradiated (initial color). # reply format: chosen label
P

----------
- assay.details: Photochromic properties of polymer (2 mm thick) containing the chromene compound, xenon lamp irradiation 120 seconds
- Format: physicochemical
- Design: key: absorbance at λmax after 120 s irradiation minus before, ε(120)-ε(0)
- measurement.setup: 120 seconds irradiation, 20° C.±1° C., at λmax
metric: Color density ε(120)-ε(0)

> print(dat)
                                    compound  recorded.measurement
 1  Fc1sccc1C1(c2ccc3ccccc3c2)C=Cc2c(ccc3ccccc23)O1 (stereo not drawn) [Compound 7]                  1.30
 2  COc1cc2c(c3ccccc13)C=CC(c1cc(Cl)c3ccccc3c1)(c1cc3ccccc3s1)O2 (stereo not drawn) [Compound 29]                  1.30
 3  C1=CC(c2ccsc2)(c2ccco2)Oc2ccc3ccccc3c21 (stereo not drawn) [Compound 6]                  1.02
 4  C1=CC(c2ccoc2)(c2ccco2)Oc2ccc3ccccc3c21 (stereo not drawn) [Compound 5]                  1.11
 5  C1=CC(c2ccco2)(c2cc3ccccc3o2)Oc2ccc3ccccc3c21 (stereo not drawn) [Compound 25]                  1.23
 6  Cn1cccc1C1(c2ccc3ccccc3c2)C=Cc2c(ccc3ccccc23)O1 (stereo not drawn) [Compound 8]                  1.00
 7  C1=CC(c2ccc3ccccc3c2)(c2ccco2)Oc2ccc3ccccc3c21 (stereo not drawn) [Compound 4]                  1.10
 8  Fc1cc2ccccc2cc1C1(c2cccs2)C=Cc2c(ccc3ccccc23)O1 (stereo not drawn) [Compound 33]                  1.11
 9  COc1ccc2ccc3c(c2c1)C=CC(c1ccco1)(c1coc2ccccc12)O3 (stereo not drawn) [Compound 14]                  1.06
10  Fc1c(C2(c3cccs3)C=Cc3c(ccc4ccccc34)O2)ccc2ccccc12 (stereo not drawn) [Compound 1]                  1.50
11  C1=CC(c2ccco2)(c2cccc3ccccc23)Oc2ccc3ccccc3c21 (stereo not drawn) [Compound 3]                  1.49
12  COc1ccc2c3c(ccc2c1)OC(c1cncs1)(c1cscc1C)C=C3 (stereo not drawn) [Compound 19]                  1.46
13  Fc1ccsc1C1(c2ccc3ccccc3c2)C=Cc2c(ccc3ccccc23)O1 (stereo not drawn) [Compound 18]                  1.15
14  Fc1occc1C1(c2ccc3ccccc3c2)C=Cc2c(ccc3ccccc23)O1 (stereo not drawn) [Compound 32]                  1.28
15  COc1ccc2c3c(ccc2c1)OC(c1cccs1)(c1cccc2ccccc12)C=C3 (stereo not drawn) [Compound 17]                  1.23

----------
- assay.details: Photochromic properties of polymer (2 mm thick) containing the chromene compound, xenon lamp irradiation 120 seconds
- Type: physicochemical
- measurement.setup: after 120 seconds irradiation
- Procedure: 0.05 Parts of the chromene compound obtained in Example 1 was added to 70 parts of a tetraethylene glycol dimethacrylate, 15 parts of a triethylene glycol dimethacrylate, 10 parts of a glycidyl methacrylate and 5 parts of a 2-hydroethyl methacrylate, and was mixed to a sufficient degree. The mixture solution was poured into a mold constituted by a glass plate and a gasket made from an ethylene/vinyl acetate copolymer and then polymerized. […]
metric: Color fading rate t1/2: time until absorbancy decreases to one-half of [ε(120)-ε(0)] (min)

> print(dat)
                                   compound  recorded.measurement
1  Fc1cc2ccccc2cc1C1(c2cccs2)C=Cc2c(ccc3ccccc23)O1 (centres unmarked) [Compound 33]                  1.13
2  Cc1csc(C2(c3scc(C)c3C)C=Cc3c(ccc4ccccc34)O2)c1C [E, reference compound]                  1.25
3  C1=CC(c2ccco2)(c2cc3ccccc3o2)Oc2ccc3ccccc3c21 (centres unmarked) [Compound 25]                 0.983
4  C1=CC(c2ccc3ccccc3c2)(c2ccco2)Oc2ccc3ccccc3c21 (centres unmarked) [Compound 4]                 0.983
5  COc1ccc2c3c(ccc2c1)OC(c1cncs1)(c1cscc1C)C=C3 (centres unmarked) [Compound 19]                  1.25
